biological target: cynomolgus CD3εδ Fc heterodimer (Cy CD3ε Fc / CD3δ Fc-HIS) (cynomolgus) (UniProt Q95LI8); assay: BLI (ForteBio), pH 6.0
Sequence (chain, as listed by the source mutant, chain 1 of 2): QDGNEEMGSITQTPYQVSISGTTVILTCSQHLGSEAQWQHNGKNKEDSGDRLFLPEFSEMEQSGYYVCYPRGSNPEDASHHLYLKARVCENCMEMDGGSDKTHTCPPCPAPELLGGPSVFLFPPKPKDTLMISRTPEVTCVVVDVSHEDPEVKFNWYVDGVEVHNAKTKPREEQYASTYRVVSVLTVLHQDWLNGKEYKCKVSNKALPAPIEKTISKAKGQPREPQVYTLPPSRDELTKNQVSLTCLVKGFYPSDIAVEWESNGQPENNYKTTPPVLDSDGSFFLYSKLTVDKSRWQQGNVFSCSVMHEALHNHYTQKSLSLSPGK
Sequence (Q95LI8 22-100, stated change not applied, chain 2 of 2): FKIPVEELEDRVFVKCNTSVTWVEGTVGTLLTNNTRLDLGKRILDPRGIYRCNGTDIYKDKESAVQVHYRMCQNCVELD
Some binders, each annotated with its measured kon.
Just the number please, in M⁻¹ s⁻¹, no unit attached.

binder | kon [M⁻¹ s⁻¹]
SAD10320_P04_E11 (antibody, V domains shown) VH: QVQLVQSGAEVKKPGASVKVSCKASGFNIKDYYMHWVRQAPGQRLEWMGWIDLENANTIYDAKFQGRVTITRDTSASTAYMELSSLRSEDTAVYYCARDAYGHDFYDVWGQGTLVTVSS VL: DIVMTQSPDSLAVSLGERATINCKSSQSLLNARTGKNYLAWYQQKPGQPPKLLIYWASTRESGVPDRFSGSGSGTDFTLTISSLQAEDVAVYYCKQSYGHRTFGGGTKVEIK | 148000
SAD10320_P04_F11 (antibody, V domains shown) VH: QVQLVQSGAEVKKPGASVKVSCKASGFNIKDYYMHWVRQAPGQRLEWMGWIDLENANTIYDAKFQGRVTITRDTSASTAYMELSSLRSEDTAVYYCARDAYGHEFYDVWGQGTLVTVSS VL: DIVMTQSPDSLAVSLGERATINCKSSQSLLNARTGKNYLAWYQQKPGQPPKLLIYWASTRESGVPDRFSGSGSGTDFTLTISSLQAEDVAVYYCKQGHSRRTFGGGTKVEIK | 201000
SAD10320_P04_F10 (antibody, V domains shown) VH: QVQLVQSGAEVKKPGASVKVSCKASGFNIKDYYMHWVRQAPGQTLDWMGWIDLENANTIYDAKFQGRVTITRDTSASTAYMELSSLRSEDTAVYYCARDAYGRNHYDVWGQGTLVTVSS VL: DIVMTQSPDSLAVSLGERATINCKSSQSLLNARPGKNYLAWYQQKPGQPPKLLIYWASTRESGVPDRFSGSGSGTDFTLTISSLQAEDVAVYYCKQSYLHRTFGGGTKVEIK | 281000
SAD10320_P03_C09 (antibody, V domains shown) VH: QVQLVQSGAEVKKPGASVKVSCEASGFNIKDYYMHWVRQAPGQRLEWMGWIDLENANTIYDAKFQGRVTITRDTSASTAYMELSSLRSEDTAVYYCARDAYGHVFYDVWGQGTLVTVSS VL: DIVMTQSPDSLAVSLGERATINCKSSQSLLNARTGKNYLAWYQQKPGQPPKLLIYWASTRESGVPDRFSGSGSGTDFTLTISSLQAEDVAVYYCKQSYLHRTFGGGTKVEIK | 161000

Then this binder:
(Q) Recall and state the measured kon for SAD10320_P03_A09 (antibody, V domains shown) VH: QVQLVQSGAEVKKPGASVKVSCKASGFNIKDYYMHWVRQAPGQRLEWMGWIDLENANTIYDAKFQGRVTITRDTSASTAYMELSSLRSEDTAVYYCARDAYGHVFYDVWGQGTLVTVSS VL: DIVMTQSPDSLAVSLGERATINCKSSQSLLNARTGKNYLAWYQQKPGQPPKLLIYWASTRESGVPDRFSGSGSGTDFTLTISSLQAEDVAVYYCKQSSHRRTFGGGTKVEIK .
(A) 199000
